Test system: CCRF-CEM leukemia
Measurement notes: NCI tumour cell line growth inhibition, 48 h
Recorded measurements of TGI, one per entry

CCOC(=O)c1nc2sc(Cl)cn2c1/C=N/N=C(N)N ... > 64.2 µM
O=C(O)C(Cc1ccc(O)cc1)N=Cc1nc(-c2ccccc2)oc1O (stereo not drawn) ... > 100 µM
CC(=O)NC1=C(NCCO)C(=O)c2ccccc2C1=O ... > 50 µM

[in] API: value(readout= TGI, system= CCRF-CEM leukemia, query= O=C1c2c[n+](Cc3ccccc3)ccc2-c2nc3ccccc3c3ccnc1c23 )
[out] 2.81 µM

[in] API: value(readout= TGI, system= CCRF-CEM leukemia, query= COc1cc2c(c(OC)c1OC)[C@@H]1CCCCC[C@@H]1CCC2=O )
[out] > 77.8 µM

[in] API: value(readout= TGI, system= CCRF-CEM leukemia, query= CC(=O)/C=C1/C(=O)C(CC(C)C)=C1CC(C)C )
[out] > 100 µM

[in] API: value(readout= TGI, system= CCRF-CEM leukemia, query= COc1cccc(/C=N/[N+](C)(C)C)c1O )
[out] > 10 µM

[in] API: value(readout= TGI, system= CCRF-CEM leukemia, query= O=C1/C(=C/c2ccccc2)CN(C(=O)/C=C/c2ccccc2)C/C1=C\c1ccccc1 )
[out] 9 µM

[in] API: value(readout= TGI, system= CCRF-CEM leukemia, query= O=NN(CC(=O)NNc1ccccc1)CC(=O)NNc1ccccc1 )
[out] > 100 µM

[in] API: value(readout= TGI, system= CCRF-CEM leukemia, query= Cc1ccnn1CCc1ccc(Cl)cc1Cl )
[out] > 100 µM

[in] API: value(readout= TGI, system= CCRF-CEM leukemia, query= Cc1ccccc1-c1cc(=O)c2cc(C)c(C)c(C(=O)O)c2o1 )
[out] > 100 µM

[in] API: value(readout= TGI, system= CCRF-CEM leukemia, query= CCOC(=O)CCC(NC(=O)c1ccc(Oc2nc3cc(N)cc(N)c3nc2-c2ccccc2)cc1)C(=O)OCC (stereo not drawn) )
[out] > 100 µM

[in] API: value(readout= TGI, system= CCRF-CEM leukemia, query= CCC(=O)NC(NNS(=O)(=O)c1ccc(C)cc1)(C(F)(F)F)C(F)(F)F )
[out] > 100 µM

[in] API: value(readout= TGI, system= CCRF-CEM leukemia, query= O=C1C=C(c2ccccc2)NC1(c1ccccc1)c1cc(-c2ccccc2)[nH]c1-c1ccccc1 (stereo not drawn) )
[out] > 100 µM

[in] API: value(readout= TGI, system= CCRF-CEM leukemia, query= O=C1c2ccccc2-n2c1nc1ccc([N+](=O)[O-])cc1c2=O )
[out] > 100 µM

[in] API: value(readout= TGI, system= CCRF-CEM leukemia, query= O=C(Nc1cccc2[nH]c(C(F)(F)F)nc12)c1ccc(Br)cc1F )
[out] 20.1 µM

[in] API: value(readout= TGI, system= CCRF-CEM leukemia, query= Cc1cc(NS(=O)(=O)c2ccc(NC(=O)c3ccc4nc5ccccc5c(Nc5ccc(S(N)(=O)=O)cc5)c4c3)cc2)no1 )
[out] 78.3 µM
